Listing: residual activity of selected compounds
# experimental_target: Tyrosine-protein kinase Lck (Homo sapiens)
# conditions_used: at 1 µM
Report only the number, with the unit % understood.

{"compound": "COC(=O)[C@@]1(O)C[C@H]2O[C@]1(C)n1c3ccccc3c3c4c(c5c6ccccc6n2c5c31)C(=O)NC4", "unit_label": "%", "residual activity": 2}

Req: Entry CCn1cnc2c(Nc3cccc(Cl)c3)nc(N[C@@H]3CCCC[C@@H]3N)nc21 : reported residual activity = ?
Resp: 27

Req: // lookup residual activity for O=C1Nc2ccc3ncsc3c2/C1=C/c1c[nH]cn1
Resp: 55

Req: Recorded residual activity for C[S+]([O-])c1ccc(-c2nc(-c3ccc(F)cc3)c(-c3ccncc3)[nH]2)cc1 (configuration not stated) , please?
Resp: 79

Req: Quick one: residual activity for O=c1[nH]c2ccccc2n1C1CCN(Cc2ccc(-c3nc4cc5[nH]cnc5cc4nc3-c3ccccc3)cc2)CC1 ?
Resp: 147

Req: Record request: residual activity value, item COc1cc2ncnc(Nc3ccc(OCc4ccccc4)cc3)c2cc1OC
Resp: 31

Req: Request the reported residual activity associated with c1cc(-c2cnn3cc(-c4ccc(OCCN5CCCCC5)cc4)cnc23)ccn1
Resp: 23

These measurements were taken from ChEMBL document CHEMBL2218924.
